The reported numbers originate from the supplement of paper PMC6757056.

B1: library; a variant is named by its letters at N, in order (parent)
chain: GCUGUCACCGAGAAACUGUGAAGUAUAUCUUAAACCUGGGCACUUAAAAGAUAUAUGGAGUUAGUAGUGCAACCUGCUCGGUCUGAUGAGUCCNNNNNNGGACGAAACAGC

Variants of: B1
Experiment: FACS-Seq fitted mean relative fluorescence mCherry/BFP with ligand (log10 relative fluorescence); HEK293T; ligand: cyclic di-GMP (c-di-GMP-II aptamer); ligand concentration (+) FACS-Seq: 1 mM; higher = higher reporter protein expression
Settings: ligand present: yes
Answer each item with its documented FACS-Seq fitted mean (log10).
Give your answer as a number; write no unit.

Query block: Item `UCUAAA` has what recorded FACS-Seq fitted mean (log10)?
Result block: -0.441

Query block: Item `AAGGUG` has what recorded FACS-Seq fitted mean (log10)?
Result block: 0.04

Query block: Item `CCCAUA` has what recorded FACS-Seq fitted mean (log10)?
Result block: -0.164

Query block: Item `ACAACU` has what recorded FACS-Seq fitted mean (log10)?
Result block: -0.23

Query block: Item `CGUUAA` has what recorded FACS-Seq fitted mean (log10)?
Result block: -0.425

Query block: Item `AAACAG` has what recorded FACS-Seq fitted mean (log10)?
Result block: 0.169

Query block: Item `ACUAAA` has what recorded FACS-Seq fitted mean (log10)?
Result block: -0.0324

Query block: Item `UAGGAA` has what recorded FACS-Seq fitted mean (log10)?
Result block: -0.00386

Query block: Item `UGAUAU` has what recorded FACS-Seq fitted mean (log10)?
Result block: -0.0482

Query block: Item `GAUAAA` has what recorded FACS-Seq fitted mean (log10)?
Result block: -0.162

Query block: Item `GUUACU` has what recorded FACS-Seq fitted mean (log10)?
Result block: 0.0991

Query block: Item `GUAGAG` has what recorded FACS-Seq fitted mean (log10)?
Result block: 0.252

Query block: Item `AAACGG` has what recorded FACS-Seq fitted mean (log10)?
Result block: 0.0867

Query block: Item `CUUGAA` has what recorded FACS-Seq fitted mean (log10)?
Result block: -0.291

Query block: Item `UACAGA` has what recorded FACS-Seq fitted mean (log10)?
Result block: -0.101

Query block: Item `GCGCAU` has what recorded FACS-Seq fitted mean (log10)?
Result block: 0.0686

Query block: Item `AGACGC` has what recorded FACS-Seq fitted mean (log10)?
Result block: -0.0488

Query block: Item `AAGGGA` has what recorded FACS-Seq fitted mean (log10)?
Result block: -0.444

Query block: Item `CACACU` has what recorded FACS-Seq fitted mean (log10)?
Result block: -0.0902

Query block: Item `GAGUUG` has what recorded FACS-Seq fitted mean (log10)?
Result block: 0.211

Query block: Item `CACCCU` has what recorded FACS-Seq fitted mean (log10)?
Result block: -0.109

Query block: Item `UGAAGU` has what recorded FACS-Seq fitted mean (log10)?
Result block: 0.0885

Query block: Item `UGGUGA` has what recorded FACS-Seq fitted mean (log10)?
Result block: -0.257

Query block: Item `CUUAUA` has what recorded FACS-Seq fitted mean (log10)?
Result block: -0.184

Query block: Item `GCUGAA` has what recorded FACS-Seq fitted mean (log10)?
Result block: -0.115

Query block: Item `UAUAGU` has what recorded FACS-Seq fitted mean (log10)?
Result block: -0.713

Query block: Item `GACAUA` has what recorded FACS-Seq fitted mean (log10)?
Result block: -0.156

Query block: Item `UCGGAG` has what recorded FACS-Seq fitted mean (log10)?
Result block: 0.0865

Query block: Item `CCAAGU` has what recorded FACS-Seq fitted mean (log10)?
Result block: 0.0295

Query block: Item `AGAGAA` has what recorded FACS-Seq fitted mean (log10)?
Result block: -0.0362

Query block: Item `CGUCAA` has what recorded FACS-Seq fitted mean (log10)?
Result block: -0.352

Query block: Item `UCCCUG` has what recorded FACS-Seq fitted mean (log10)?
Result block: 0.44

Query block: Item `UAAUUU` has what recorded FACS-Seq fitted mean (log10)?
Result block: -0.0196

Query block: Item `CGCAUG` has what recorded FACS-Seq fitted mean (log10)?
Result block: -0.162

Query block: Item `GUAAGG` has what recorded FACS-Seq fitted mean (log10)?
Result block: 0.0239

Query block: Item `CUCUAG` has what recorded FACS-Seq fitted mean (log10)?
Result block: 0.447

Query block: Item `UUAUCC` has what recorded FACS-Seq fitted mean (log10)?
Result block: 0.218

Query block: Item `CGCCAC` has what recorded FACS-Seq fitted mean (log10)?
Result block: 0.173

Query block: Item `CGAUAA` has what recorded FACS-Seq fitted mean (log10)?
Result block: -0.358

Query block: Item `AAUGGA` has what recorded FACS-Seq fitted mean (log10)?
Result block: -0.114

Query block: Item `ACGGAA` has what recorded FACS-Seq fitted mean (log10)?
Result block: -0.325

Query block: Item `CUCUCU` has what recorded FACS-Seq fitted mean (log10)?
Result block: 0.163

Query block: Item `AGCAAA` has what recorded FACS-Seq fitted mean (log10)?
Result block: -0.277

Query block: Item `CGCCAU` has what recorded FACS-Seq fitted mean (log10)?
Result block: -0.0661
